measurement target: GAL4–human PPARδ-LBD chimera (Homo sapiens, UniProt Q03181)
Sequence (Q03181 211-439 limits assumed): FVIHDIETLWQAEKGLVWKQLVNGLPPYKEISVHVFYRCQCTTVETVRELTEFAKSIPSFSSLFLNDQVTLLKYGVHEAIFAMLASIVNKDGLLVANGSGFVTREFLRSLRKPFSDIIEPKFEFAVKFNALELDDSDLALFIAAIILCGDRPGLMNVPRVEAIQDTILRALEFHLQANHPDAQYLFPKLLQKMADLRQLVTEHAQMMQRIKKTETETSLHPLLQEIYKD
experimental protocol: GAL4–hPPARδ-LBD dual luciferase transactivation assay in COS-7 cells
For each record, write down the corresponding pEC50.
Numbers only, as −log10 of the molar value.

CC[C@@H](Oc1cccc(CN(CCCOc2ccc(OC)cc2)c2nc3ccccc3o2)c1)C(=O)O [pemafibrate] | 5.86

Note: attention shifts to another entry.
Field request: pEC50 | item: CC(C)(Oc1ccc(CCNC(=O)c2ccc(Cl)cc2)cc1)C(=O)O [bezafibrate]
4.06
